pIC50: −log10 of the molar value.
Compiled notes: published pIC50 values involving UniProt Q9UBN7.

Smiles Str	pIC50
CCN(Cc1ccc(C(=O)NO)cc1)C(=O)c1cc(C(C)C)c(O)cc1O	7.64
COc1ncc(-c2nc(N3CCOCC3)nc3c(OC4CCN(c5ncc(C(=O)NO)cn5)CC4)cc(F)cc23)cc1NS(C)(=O)=O	6.00 to 7.00
C[C@@H](c1ccc(C(=O)Nc2ccccc2N)cc1)n1nc(-c2cccc(Cl)c2)ccc1=O	< 5.00
C[C@@H](c1ccc(C(=O)Nc2cc(F)ccc2N)cc1)n1nc(-c2ccc(CN(C)C)cc2)ccc1=O	< 5.00
C[C@@H](c1ccc(C(=O)Nc2ccccc2N)cc1)n1nc(-c2ccccc2)ccc1=O	< 5.00

Specify measured pIC50 for COc1ncc(-c2nc(N3CCOCC3)nc3c(CNc4ncc(C(=O)NO)cc4F)cc(F)cc23)cc1NS(C)(=O)=O .
7.00 to 8.00

Give the measured pIC50 for CC(C)c1cc(C(=O)N(Cc2ccc(C(=O)NO)cc2)c2ccc(F)cc2)c(O)cc1O
7.64

Please report pIC50 for the following molecule: COc1ncc(-c2nc(N3CCOCC3)nc3c(CN4CCN(c5ncc(C(=O)NO)cn5)CC4)cc(F)cc23)cc1NS(C)(=O)=O
7.00 to 8.00

Tell me pIC50 reported for CC(C)c1cc(C(=O)N(Cc2ccc(C(=O)NO)cc2)c2ccc(N3CCN(C)CC3)cc2)c(O)cc1O
8.23

For the molecule CC(C)c1cc(C(=O)N(Cc2ccc(C(=O)NO)cc2)c2ccc3c(c2)OCO3)c(O)cc1O , give its reported pIC50.
7.89

Report pIC50 for COc1ccc(N)c(NC(=O)c2ccc([C@H](C)n3nc(-c4ccc(CN(C)C)cc4)ccc3=O)cc2)c1
< 5.00

Specify reported pIC50 for the molecule shown: COc1ncc(-c2nc(N3CCOCC3)nc3c(OCCCCCCC(=O)NO)cc(F)cc23)cc1NS(C)(=O)=O
≥ 8.00

====

// compounds with reported IC50 on Protein deacetylase HDAC6 (Homo sapiens), multi-publication

Smiles Str	Measured Metric	Assay Result
COc1ncc(-c2nc(N3CCOCC3)nc3c(CN4CCC(CCCC(=O)NO)CC4)cc(F)cc23)cc1NS(=O)(=O)C1CC1	IC50	10 to 100 nM
CC(C)c1cc(C(=O)N(Cc2ccc(C(=O)NO)cc2)c2ccc(Cl)cc2)c(O)cc1O	IC50	17.2 nM

GET IC50 where system = Protein deacetylase HDAC6 (Homo sapiens) and item = C[C@@H](c1ccc(C(=O)Nc2ccccc2N)cc1)n1nc(-c2cnn(C)c2)ccc1=O
> 10000 nM
